- METHOD_SUMMARY: NCI Yeast Anticancer Drug Screen. Data for the mlh1 rad18 strain (AID 175)
- DETAILS: S. cerevisiae mlh1 rad18 strain growth inhibition; at 50.0 µM; hits give high values
- Description: Growth inhibition of yeast strains with defined genetic alterations is measured as a screen for potential anti-cancer activity. Selected strains with alterations in DNA damage repair or cell cycle control were exposed to compounds and growth inhibition was measured relative to vehicle treated controls. The strain used in this assay is mlh1 rad18
The panel holds about 79,000 compounds, 15% with a hit somewhere; the sample as a whole holds those more often.
PARAMETER: growth inhibition (%)

COMPOUND	PARAMETER	OBSERVED_RESULT
COC(=O)C1=C(O)C(C(=O)OC)[C@@]2(O)[C@@H](C(=O)OC)[C@H](C)C[C@@H]1[C@@H]2C(=O)OC (some centres not stated)	growth inhibition	38.5
OCCO	growth inhibition	-30.6
CCN(CC)CCOC(=O)c1ccc(N=Nc2ccc(O)cc2O)cc1	growth inhibition	-17.1
O=c1[nH]c(CCCc2ccccc2)c(Br)c(=O)[nH]1	growth inhibition	24.4
Cc1ncc([N+](=O)[O-])n1CCNC(=O)CCn1ccnc1[N+](=O)[O-]	growth inhibition	-22.9
C=CCOC(=O)CCC(C#N)(C#N)CCC(=O)OCC=C	growth inhibition	15.3
NC(=O)CC1(C(=O)O)c2ccccc2-c2ccccc21	growth inhibition	-3.95
CCN(CC)C(=O)COc1ccc(Cl)cc1C(C)C	growth inhibition	-31.4
NNC(=O)CC(=O)Nc1ccccc1F	growth inhibition	-2.85
N#Cc1cccc(CC(O)(c2ccccc2)c2ccccc2)c1	growth inhibition	18.4
O=C1Cc2ccccc2NC(c2ccccc2)C1S(=O)(=O)c1ccccc1 (configuration not stated)	growth inhibition	19.6
Cc1c(-c2ccccc2)nnn1-c1ccc(F)cc1F	growth inhibition	-9.35
O=C(O)c1sccc1Cc1ccsc1	growth inhibition	5
Cc1ccc(OC(=O)NC(C)(C)C)cc1	growth inhibition	-12.5
O=C(Nc1ccccn1)c1ccccc1	growth inhibition	31.8
CCCCCCCCCCCCCCCc1c(NC(C)(CC)[P+](=O)O)c(=O)n(C)n1C (configuration not stated)	growth inhibition	-18.8
OC(CC(O)(C(F)(F)F)C(F)(F)F)c1cccs1 (configuration not stated)	growth inhibition	12.9
CC1OC(OC2C(OC3C[C@@]4(C)C(C[C@H](O)[C@H]5[C@H](C6(C)CCC(C(C)(C)O)O6)CCC54C)[C@]4(C)CC[C@@H](O)C(C)(C)C34)OC(CO)C(O)C2O)C(O)C(O)C1O (some centres not stated) (tested in a mixture with another compound)	growth inhibition	-72.5
NCc1cnccn1	growth inhibition	-1.85
NC(=O)C1CCc2ccccc2C1 (configuration not stated)	growth inhibition	-9.45
O=C(O)c1cccc2cnccc12	growth inhibition	-8.7
COc1ccc(/C=C2\N=C(N/N=C\C(O)C(O)C(O)C(O)CO)NC2=O)cc1 (configuration not stated)	growth inhibition	-49.8

====

Parameter growth inhibition: see the listing below.
- METHOD_SUMMARY: NCI Yeast Anticancer Drug Screen. Data for the bub3 strain (AID 167)
- DETAILS: S. cerevisiae bub3 mutant strain, at 50.0 µM, hits give high values
This is part of a sample that, as a whole, favours compounds with a hit. Of some 79,000 tested, about 15% had one in any assay.

MOLECULE	growth inhibition [%]
NC(=O)N/N=C1\CCn2cccc21	1.1
CC[O-].CC[O-].O=C1c2ccccc2C(=O)c2c(O)ccc([O-])c21.O=C1c2ccccc2C(=O)c2c(O)ccc([O-])c21.[Ti+4]	-17.9
COc1ccc(Br)cc1C=Nc1ccccc1	9.05
CCOc1ccc(Br)cc1/C=N\NC(=O)c1ccccc1N(C)C	-2.25
COc1ccc(S(=O)(=O)/N=C(/C2CC3=CCC4C5CCC(=O)C5(C)CC(=O)C4C3(C)C2)N2CCCC2)cc1 (centres undefined)	-1.35
COc1ccc(/C=C\c2cc(OC)c(OC)c(OC)c2)cc1OCC(=O)O	-10.4
CCCCCCCCCCCCCCCCS(=O)(=O)N/N=C/c1ccc(N(C)C)cc1	1.95
CC(C)=CCC/C(C)=C/C=O	7.95
O=C(c1nc2ccccc2[nH]c1=O)C(O)c1ccccc1 (centres undefined)	-12.8
CC(=O)OC/C=C(\C)CCC=C(C)C	-0.55
CCN(CC)c1ccc(N=Nc2ccc([N+](=O)[O-])cc2OC(=O)/C=C/c2ccccc2)c(OC(=O)/C=C/c2ccccc2)c1	-32.5
COc1cc2c3c(c1)nc(C)n3C(=O)C(C)S2 (centres undefined)	11.3
[O-]c1c[n+](CC[n+]2cc([O-])on2)no1	-19.6
CNc1ncnc2nc[nH]c12	-8.5
Cc1cc[n+](C2=C([O-])C3=C(C(=O)C2=O)C2c4ccccc4C3c3ccccc32)c(C)c1	90.2
COc1ccc(NC(=O)COc2cc(Cl)c(Cl)cc2Cl)cc1	3.9
Oc1ccccc1CN=Cc1ccccc1	-27.2
CCOC(=O)C1C=NC([N+](=O)[O-])=C1Br (centres undefined)	18.4
CC#CC(O)(C(=O)OC1CCCN(C)C1)C1=CC=CCC1 (centres undefined)	-1.75
